ratio to parent by entry:
B1: fused FliT−FliD^C construct (FliD^C fused to the N terminus of FliT) [Salmonella enterica serovar Typhimurium ST313] / cytoplasmic domain of Salmonella enterica serovar Typhimurium FlhA (FlhA^C) [Salmonella enterica serovar Typhimurium … (parent complex)
chain 1: GAHMSIDETVARYKAQFTQLDTMMSKLNNTSSYLTQQFTAMNKSGGSGGSGSGGSGGMTSTVEFINRWQRIALLSQSLLELAQRGEWDLLLQQEVSYLQSIETVMEKQTPPGITRSIQDMVAGYIKQTLDNEQLLKGLLQQRLDELSSLIGQSTRQKSLNNAYGRLSGMLLVPDAPGAS
chain 2: SLGMEVGYRLIPMVDFQQDGELLGRIRSIRKKFAQDMGFLPPVVHIRDNMDLQPARYRILMKGVEIGSGDAYPGRWLAINPGTAAGTLPGEKTVDPAFGLDAIWIESALKEQAQIQGFTVVEASTVVATHLNHLIGQFSAELFGRQEAQQLLDRVSQEMPKLTEDLVPGVVTLTTLHKVLQNLLAEKVPIRDMRTILETLAEHAPLQSDPHELTAVVRVALGRAITQQWFPGNEEVQVIGLDTALERLLLQALQGGGGLEPGLADRLLAQTQEALSRQEMLGAPPVLLVNHALRPLLSRFLRRSLPQLVVLSNLELSDNRHIRMTATIGGK

- Variants of: B1
- experiment: ITC; parent: 1; read off a plot

Answered cases to consult:
Looking up chain 2 I79A , I found its ratio to parent recorded as ~6

Looking up chain 2 E279K , I found its ratio to parent recorded as ~5

Looking up chain 2 F98A , I found its ratio to parent recorded as ~9

Looking up chain 2 V126G , I found its ratio to parent recorded as ~4

Looking up chain 2 E279K, chain 2 M280G, chain 2 L281G , I found its ratio to parent recorded as ~10

Looking up chain 2 V121K , I found its ratio to parent recorded as ~7

// below: ratio to parent requested for another variant
Looking up chain 2 T129M , I found its ratio to parent recorded as ~3.3
